- Tested on: Staphylococcus epidermidis
- assay-method-text: Tested in vitro for minimum inhibitory concentration to produce antibacterial activity against Staphylococcus epidermidis 3519
- Format: functional
measured-attribute: MIC (µg/mL)

Recorded results for 2 compounds are shown here.
{"given-smiles": "CC[C@H]1OC(=O)[C@H](C)C[C@H](C)[C@@H](O[C@@H]2O[C@H](C)C[C@H](N(C)C)[C@H]2O)[C@](C)(OC)C[C@@H](C)/C(=N\\O)[C@H](C)[C@@H](O)[C@]1(C)O", "MIC (µg/mL)": 12.5}
{"given-smiles": "CC[C@H]1OC(=O)[C@H](C)C[C@H](C)[C@@H](O[C@@H]2O[C@H](C)C[C@H](N(C)C)[C@H]2O)[C@](C)(OC)C[C@@H](C)/C(=N\\OC)[C@H](C)[C@@H](O)[C@]1(C)O", "MIC (µg/mL)": 100}

[A] CC[C@H]1OC(=O)[C@H](C)C[C@H](C)[C@@H](O[C@@H]2O[C@H](C)C[C@H](N(C)C)[C@H]2O)[C@](C)(OC)C[C@@H](C)C(=O)[C@H](C)[C@H]2N(CCc3ccc(Oc4ccccc4)cc3)C(=O)O[C@]12C
[B] CC[C@H]1OC(=O)[C@H](C)C[C@H](C)[C@@H](O[C@@H]2O[C@H](C)C[C@H](N(C)C)[C@H]2O)[C@](C)(OC)C[C@@H](C)C(=O)[C@H](C)[C@H]2N(CCCCc3ccccc3)C(=O)O[C@]12C
Input: Problem: Given the entries A and B , determine which has the lower reported MIC. Bench note: the answer is the label of the chosen record.
Output: B
(B: 1.56 µg/mL, A: 12.5 µg/mL)
